Test system: M14 melanoma
protocolDetails: NCI tumour cell line growth inhibition, 48 h
# TGI per entry
propertyMeasured: TGI

molecule=O=C(Nc1ccc(S(=O)(=O)/N=c2\ncccn2C(=O)C(C(F)(F)F)C(F)(F)F)cc1)C(C(F)(F)F)C(F)(F)F targetsystem="M14 melanoma" observedvalue="> 100 µM"
molecule=Cn1cc(C2=C(Nc3ccccc3)C(=O)NC2=O)c2ccccc21 targetsystem="M14 melanoma" observedvalue="> 25 µM"
molecule="CC(C)N(C(=O)C12C3C4C1C1C2C3C41C(N)=O)C(C)C (stereo not given)" targetsystem="M14 melanoma" observedvalue="> 100 µM"
molecule=COc1ccccc1C1(c2c(OC)c(=O)c2=O)SCCCS1 targetsystem="M14 melanoma" observedvalue="> 100 µM"
molecule=O=C(/C(=C\I)c1ccccc1)c1ccccc1 targetsystem="M14 melanoma" observedvalue="30.5 µM"

Source of measurements: PubChem BioAssay (NCI)
